Assign growth to each entry below.
Tested on: SF-268 CNS
ASSAY_REMARKS: NCI-60 one-dose screen, 48 h (100 = growth as untreated, 0 = no growth, -100 = all killed)
RUN_CONDITIONS: 10 µM unless noted
This is part of a sample that, as a whole, favours compounds with a hit. Of some 83,000 tested, about 20% had one in any assay.
Provide the reading as a plain figure in %.

# growth (molecule: CCc1n(Cc2ccc3ccccc3c2)c2ccccc2[n+]1Cc1ccc2ccccc2c1 ) is 64.7

# growth (molecule: CC(C)C[C@H](C(=O)O)N(C)C(=O)[C@@H]1CCCN1C(=O)[C@H](C)OC(=O)[C@H](CCC(N)=O)NC(=O)[C@@H]1CCC(=O)N1 ) is 97.4

# growth (molecule: Cc1ccc(C2CC(c3ccc(Nc4nc(NCCO)nc(NCCO)n4)cc3)=NN2c2ccc(Cl)cc2)cc1 (centres undefined) ) is 56.8

# growth (molecule: COc1ccc(/C=C/C(=O)/C=C(/C=C/c2ccc(OC)c(OC)c2)OB(F)F)cc1OC ) is 34.9

====

Test system: RPMI-8226 leukemia
ASSAY_REMARKS: NCI-60 one-dose screen, 48 h (100 = growth as untreated, 0 = no growth, -100 = all killed)
RUN_CONDITIONS: 10 µM unless noted
This is part of a sample that, as a whole, favours compounds with a hit. Of some 83,000 tested, about 20% had one in any assay.
REPORTED_ENDPOINT: growth (%)
Provide the reading as a plain figure in %.

# growth (compound: Cc1cc(C)c2nc(Nc3nc(C)c(C)c(=O)[nH]3)nc(C)c2c1 ) is -17.1

# growth (compound: C#CCOC(=O)[C@]1(C)CCC[C@]2(C)[C@H]3C[C@H]4C(C(C)C)=C[C@]3(CC[C@H]21)[C@@H]1C(=O)CCC(=O)[C@@H]14 ) is 67.9

# growth (compound: COc1cc(/C=C/C(=O)/C=C/c2cc3ccc(Cl)cc3n(Cc3ccccc3)c2=O)ccc1O ) is -18.8

# growth (compound: CC(C)C1=C[C@@]23CC[C@H]4[C@](C)(COCCC#N)CCC[C@]4(C)[C@H]2C[C@@H]1[C@@H]1[C@H]3[C@@H](OCCC#N)CC[C@@H]1OCCC#N ) is 18.7

# growth (compound: O=C(NCc1ccccc1)c1ccc2c(c1)NC(=O)[C@@H]1CCCN21 ) is 105

# growth (compound: CCOC(=O)C1=C(C)n2nc(CC#N)c(C#N)c2NC1c1ccc(CC)cc1 (centres undefined) ) is 102

# growth (compound: Cn1c2ccccc2c2c(OC(=O)c3ccccc3)c3c(nc21)-c1ccccc1C3 ) is 96.2

# growth (compound: c1ccc(-c2cn3ccnc3c(-c3ccc4c(c3)ncn4C3CCCCC3)n2)cc1 ) is 81.7

# growth (compound: COc1cc(NC(=O)Nc2cnc(Nc3ccc(N4CCOCC4)cc3)nc2Oc2ccc(C(F)(F)F)cc2)cc(OC)c1 ) is 92.5

====

System: CCRF-CEM leukemia
ASSAY_REMARKS: NCI-60 one-dose screen, 48 h
RUN_CONDITIONS: 10 µM unless noted
Compounds without any hit were thinned out: in the full panel of roughly 83,000, 20% have a hit. Calls of active or inactive are those of the source. The calls were made as follows: active = growth percent below 10; inactive = the rest.
Field 'call' accepts label 1 for active, label 0 for inactive

Name the outcome recorded for COc1ccc2c(c1)C1(C(=O)N2)C(C#N)=C(c2ccccc2)Nc2c1c(-c1ccccc1)nn2-c1ccccc1 (configuration not stated) in the assay.
label 0

Name the outcome recorded for Cc1cccc(NC(=O)c2sc3nc4c(cc3c2N)CN(Cc2ccccc2)CC4)c1C in the assay.
label 0

Name the outcome recorded for COC(=O)/C=C1\SC(=Nc2cccc(OC)c2)N(CCc2c[nH]c3ccccc23)C1=O in the assay.
label 0

Name the outcome recorded for [2H]c1nc(Nc2ncc3cc(C(=O)N(C)C)n(C4CCCC4)c3n2)c([2H])c([2H])c1N1C([2H])([2H])C([2H])([2H])NC([2H])([2H])C1([2H])[2H] in the assay.
label 0

Name the outcome recorded for CC(C)(C)c1ccc2oc(=O)n(SC(Cl)(Cl)Cl)c2c1 in the assay.
label 0

Name the outcome recorded for CCSc1ccc(C2C(Br)C(=O)N2c2cc(OC)c(OC)c(OC)c2)cc1 (configuration not stated) in the assay.
label 0

Name the outcome recorded for CCCCCCCCCCCCCC1=NCC[N+]1(CCO)Cc1ccccc1 (configuration not stated) in the assay.
label 1

Name the outcome recorded for C[C@H]1[C@H](C)CC[C@]2(C(=O)OCCCC[P+](c3ccccc3)(c3ccccc3)c3ccccc3)CC[C@]3(C)C(=CC[C@@H]4[C@@]5(C)CC[C@H](OC(=O)C(Cl)Cl)C(C)(C)[C@@H]5CC[C@]43C)[C@H]12 in the assay.
label 1

Name the outcome recorded for COc1cc(NC(=O)Nc2cnc(Nc3ccc(N4CCOCC4)cc3)nc2Oc2ccc(F)cc2)cc(OC)c1 in the assay.
label 0

Name the outcome recorded for OCCNc1nc(NCCO)nc(Nc2ccc(C3=NN(c4cc(Cl)cc(Cl)c4)C(c4ccccc4)C3)cc2)n1 (configuration not stated) in the assay.
label 0

Name the outcome recorded for COc1cc(-c2csc(NC(=O)Nc3cc(Cl)cc(Cl)c3)n2)cc(OC)c1OC in the assay.
label 0

Name the outcome recorded for CCN1CCN(c2ccc(NC(=O)Nc3nc4ccc(-c5ccccc5OC)cc4s3)cc2)CC1 in the assay.
label 1

Name the outcome recorded for CN1CCN(/C=C2\CC(C(=O)NCc3ccc(Cl)cc3Cl)NC2=O)CC1 (configuration not stated) in the assay.
label 0

Name the outcome recorded for COC(=O)c1oc2c(C(=O)/C=C/c3ccc(OC)cc3)c(OCCCN3CCCCC3)ccc2c1C in the assay.
label 1

Name the outcome recorded for COc1ccc2oc(=O)cc(-c3c(C#N)c(N)n4nc(N)c(C#N)c4c3C#N)c2c1 in the assay.
label 0

Name the outcome recorded for O=C1CC(c2ccc(O)c(O)c2)Oc2cc(O)c([C@@H]3O[C@H](CO)[C@@H](O)[C@H](O)[C@H]3O)c(O)c21 (some centres not stated) in the assay.
label 0

Name the outcome recorded for COc1ccc(-c2cc(-c3nnc(SCC(=O)Nc4ccc(/C(C)=N\O)cc4)o3)c3ccccc3n2)cc1 in the assay.
label 0
